All figures here come from paper PMC7914897.

Overview of recorded number of cancer cell lines the compound was active against for various compounds
- Test system: panel of approximately 60 cancer cell lines
- assay_protocol: NCI-60 screen (SRB, 48 h), full panel
- cond: 1 dose 10 µM
Please state the figure in cell lines; there is no need to write the unit.

Examples from the recorded data:
C=C(C)[C@@H]1CCC=C2CC[C@]3(C)[C@H](CC[C@@H]4[C@@]5(C)CCCNC(C)(C)[C@@H]5CC[C@]43C)[C@H]21 [Compound 8] ... 55
C=C(C)C1CCC2(CO)CCC3(C)C(CCC4C5(C)CCCNC(C)(C)C5CCC43C)C12 (stereo not drawn) [Compound 1, Azepanobetulin] ... 28
C[C@H]1[C@H](C)CC[C@]2(C(=O)Nc3ccc4ncccc4c3)CC[C@]3(C)C(=CC[C@@H]4[C@@]5(C)CCCNC(C)(C)[C@@H]5CC[C@]43C)[C@H]12 [Compound 14] ... 45

Query compound follows.
Task: Given the entry C=C(C)[C@@H]1CC[C@]2(COS(=O)(=O)c3ccc(C)cc3)CC[C@]3(C)[C@@H](CC[C@@H]4[C@@]5(C)CCCNC(C)(C)[C@@H]5CC[C@]43C)[C@@H]12 [Compound 12] , report its measured number of cancer cell lines the compound was active against.
Output: 39
